Cited source for all entries: patent US10780081B2

Biological target: Human recombinant LSD1 (Homo sapiens, UniProt O60341)
Construct: amino acids 158-end with N-terminal GST tag; GST (N)
Experiment: LSD1 in vitro biochemical assay (Amplex Red, di-methylated H3-K4 peptide)
Settings: read-out: IC50 against LSD1
From the text: In order to monitor LSD1 enzymatic activity and/or its inhibition rate by a test compound, di-methylated H3-K4 peptide (Anaspec) was chosen as a substrate. […] Tranylcypromine (Biomol International) was used as a control for inhibition. […] The conversion of the Amplex® Red reagent to resorufin due to the presence of H2O2 in the assay, was monitored by fluorescence (excitation at 540 nm, emission at 590 nm) using a microplate reader (Infinite 200, Tecan). […]
Measured metric: pIC50
Remember the convention: pIC50 equals -log10 of concentration in molar.

-- ask For the molecule Nc1nnc(CN[C@@H]2C[C@H]2c2ccc(OCc3ccccc3)cc2)o1 (single isomer, unassigned) , what pIC50 is on record?
-- reply 7.05
